# testedSystem: IDO1 (Homo sapiens, UniProt P14902)
# Sequence (P14902 whole entry): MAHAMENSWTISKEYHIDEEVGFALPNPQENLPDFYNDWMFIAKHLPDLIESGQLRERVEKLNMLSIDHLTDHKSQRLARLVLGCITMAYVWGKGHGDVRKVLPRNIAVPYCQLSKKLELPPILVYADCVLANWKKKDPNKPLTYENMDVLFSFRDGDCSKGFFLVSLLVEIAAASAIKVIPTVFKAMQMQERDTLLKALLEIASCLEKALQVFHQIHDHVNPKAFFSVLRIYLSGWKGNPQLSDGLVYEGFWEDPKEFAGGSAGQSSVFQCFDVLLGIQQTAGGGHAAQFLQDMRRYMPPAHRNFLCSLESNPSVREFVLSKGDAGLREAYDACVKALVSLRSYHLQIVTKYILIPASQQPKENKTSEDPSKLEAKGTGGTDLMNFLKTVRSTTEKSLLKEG
# testName: IDO1 enzymatic assay
# Format: biochemical
# Set-up: His tag (N); made in house; host or cells: E. coli
# settings: read-out: Enzyme IC50 IDO1
pIC50: −log10 of the molar value.
The label depends only on pIC50: y if it is at least 7, n if it is smaller.

Solved cases (3 shown):
- molecule: "OC(c1c(C2CC2)ccc2cncn12)C1CCN(c2cccc(F)c2)CC1 (centres unmarked)"
  groupLabel: "y"
- molecule: "OC(c1c(C2CC2)ccc2cncn12)C1CCN(c2ccc(F)c3ncccc23)CC1 (centres unmarked)"
  groupLabel: "y"
- molecule: "COc1ccc([C@H]2CC[C@H]([C@H](O)c3c(C4CC4)ccn4cncc34)CC2)cc1 [Example C101a]"
  groupLabel: "y"

Could you verify whether the entry O[C@@H](c1c(C2CC2)ccc2cncn12)[C@H]1CC[C@H](c2ccc3sccc3c2)CC1 (single isomer, unassigned) [Example D133b] shows pIC50 of no less than 7?
n

Is the recorded value of pIC50 equal to or greater than 7 for this molecule? O[C@H](c1c(C2CC2)ccc2cncn12)C1CCN(c2ccc(Cl)cc2)CC1 (single isomer, unassigned) [Example D174a]
y

Does pIC50 meet or surpass 7 for O[C@H](c1c(C2CC2)ccc2cncn12)[C@H]1CC[C@H](c2ccc(F)c(Cl)c2)CC1 (single isomer, unassigned) [Example D129a] ?
y

# check: pIC50 of OC(c1c(C2CC2)ccc2cncn12)C1CCC(c2ccc(Cl)cc2)CC1 (centres unmarked) is greater than or equal to 7
y

Is pIC50 at least 7? Consider N#Cc1ccc([C@H]2CC[C@H](C(O)c3c(C4CC4)ccn4cncc34)CC2)cc1 (single isomer, unassigned) [Example C106a]
y

Given O[C@@H](c1c(C2CC2)ccn2cncc12)[C@H]1CC[C@H](c2ccc(C(F)(F)F)cc2)CC1 (single isomer, unassigned) [Example C115b] , state whether its pIC50 is at least 7.
n

Given the entry O[C@H](c1c(C2CC2)ccc2cncn12)[C@H]1CC[C@H](c2ccc(Br)cc2)CC1 (single isomer, unassigned) [Example D118a] , answer whether its pIC50 meets or surpasses 7.
y

Dear colleague, could you confirm whether OC(c1c(C2CC2)ccc2cncn12)C1CCC(c2ccnc3ccccc23)CC1 (centres unmarked) has pIC50 at or above 7?
y

Check if pIC50 >= 7 (inclusive). Item: OC(c1c(C2CC2)ccc2cncn12)C1CCN(c2ccccc2)CC1 (centres unmarked)
y
